FYI, the data here is from ChEMBL document CHEMBL4002641.

SYSTEM: Protein kinase C theta type (Homo sapiens)
Sequence (Q04759 whole entry): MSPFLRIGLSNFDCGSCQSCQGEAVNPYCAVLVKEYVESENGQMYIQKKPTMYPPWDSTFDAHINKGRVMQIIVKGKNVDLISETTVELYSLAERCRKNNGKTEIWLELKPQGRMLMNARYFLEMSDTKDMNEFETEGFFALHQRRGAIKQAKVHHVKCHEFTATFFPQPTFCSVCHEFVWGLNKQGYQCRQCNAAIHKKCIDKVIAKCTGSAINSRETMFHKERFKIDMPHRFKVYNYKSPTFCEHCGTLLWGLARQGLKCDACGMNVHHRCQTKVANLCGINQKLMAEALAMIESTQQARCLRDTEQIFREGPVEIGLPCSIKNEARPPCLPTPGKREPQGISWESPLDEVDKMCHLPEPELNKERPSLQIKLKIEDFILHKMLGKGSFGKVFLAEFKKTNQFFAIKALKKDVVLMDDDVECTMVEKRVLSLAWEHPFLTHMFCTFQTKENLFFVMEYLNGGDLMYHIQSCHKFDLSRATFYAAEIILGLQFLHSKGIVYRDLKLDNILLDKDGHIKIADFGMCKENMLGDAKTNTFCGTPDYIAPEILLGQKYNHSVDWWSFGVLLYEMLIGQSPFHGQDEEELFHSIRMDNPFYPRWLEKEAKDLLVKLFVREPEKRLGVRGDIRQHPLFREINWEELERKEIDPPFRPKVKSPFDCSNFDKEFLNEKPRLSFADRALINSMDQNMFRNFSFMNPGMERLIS
EXPERIMENTAL_PROTOCOL: Inhibition of PKCtheta in human Jurkat T cells assessed as reduction in anti-CD3/CD28 antibody-induced T-cell activation by measuring decrease in IL-2 secretion after 5 hrs by luciferase reporter gene assay
Type: cell-based
RECORDED_ENDPOINT: pIC50
Notebook: values listed as pIC50 are -log10 of the concentration (mol/L).

**Q:** Entry CN(C)Cc1ccc2c(C3=C(c4cn(C)c5ccccc45)C(=O)NC3=O)c(Cl)ccc2c1 needs its pIC50 filled in; supply it.
**A:** 6.73

**Q:** Entry CN1CCN(c2nc(C3=C(c4c[nH]c5ccccc45)C(=O)NC3=O)c3ccccc3n2)CC1 needs its pIC50 filled in; supply it.
**A:** 7.09

**Q:** Entry CN(C)Cc1ccc2c(C3=C(c4c[nH]c5ccccc45)C(=O)NC3=O)c(Cl)ccc2c1 needs its pIC50 filled in; supply it.
**A:** 6.81

**Q:** Entry CN(C)Cc1ccc2ccc(Cl)c(C3=C(c4cn(C)c5ccccc45)C(=O)NC3=O)c2c1 needs its pIC50 filled in; supply it.
**A:** 6.40

**Q:** Entry CN(C)Cc1ccc2ccc(Cl)c(C3=C(c4c[nH]c5ccccc45)C(=O)NC3=O)c2c1 needs its pIC50 filled in; supply it.
**A:** 6.15

----------
Listed next: entries and their corresponding pIC50.
SYSTEM: Protein kinase C delta type (Homo sapiens)
EXPERIMENTAL_PROTOCOL: Inhibition of PKCdelta (unknown origin) after 60 mins in presence of [gamma33P]ATP by scintillation proximity assay
Notebook: values listed as pIC50 are -log10 of the concentration (mol/L).

CN(C)Cc1ccc2ccc(Cl)c(C3=C(c4c[nH]c5ccccc45)C(=O)NC3=O)c2c1
6.52

**Q:** Give Protein kinase C delta type (Homo sapiens) pIC50 for the following molecule: CN(C)Cc1ccc2ccc(Cl)c(C3=C(c4cn(C)c5ccccc45)C(=O)NC3=O)c2c1
**A:** 6.67

**Q:** Give Protein kinase C delta type (Homo sapiens) pIC50 for the following molecule: Cn1cc(C2=C(c3c(Cl)ccc4ccc(CN5CCC5)cc34)C(=O)NC2=O)c2ccccc21
**A:** 6.64

**Q:** Give Protein kinase C delta type (Homo sapiens) pIC50 for the following molecule: Cn1cc(C2=C(c3cccc4cc(CN)ccc34)C(=O)NC2=O)c2ccccc21
**A:** 7.04

----------
Test system: PBMC
EXPERIMENTAL_PROTOCOL: Inhibition of human PBMC proliferation assessed as decrease in [3H]-TdR uptake after 6 days by mixed lymphocyte reaction assay
Assay type: functional, cell-based
RECORDED_ENDPOINT: log10 of IC50 (log10 of the value in nM)
Recall that a logarithmic scale is used here: each number is log10 of IC50 in nM.

CN(C)Cc1ccc2c(C3=C(c4c[nH]c5ccccc45)C(=O)NC3=O)c(Cl)ccc2c1
1.77
CN1CCN(c2nc(C3=C(c4c[nH]c5ccccc45)C(=O)NC3=O)c3ccccc3n2)CC1
1.45
CN(C)Cc1ccc2ccc(Cl)c(C3=C(c4cn(C)c5ccccc45)C(=O)NC3=O)c2c1
2.44

**Q:** Entry CN(C)Cc1ccc2ccc(Cl)c(C3=C(c4c[nH]c5ccccc45)C(=O)NC3=O)c2c1 needs its log10 of IC50 filled in; supply it.
**A:** 2.61

**Q:** Entry CN(C)Cc1ccc2c(C3=C(c4cn(C)c5ccccc45)C(=O)NC3=O)c(Cl)ccc2c1 needs its log10 of IC50 filled in; supply it.
**A:** 1.73

----------
SYSTEM: Protein kinase C delta type (Homo sapiens, UniProt Q05655)
Sequence (Q05655 whole entry): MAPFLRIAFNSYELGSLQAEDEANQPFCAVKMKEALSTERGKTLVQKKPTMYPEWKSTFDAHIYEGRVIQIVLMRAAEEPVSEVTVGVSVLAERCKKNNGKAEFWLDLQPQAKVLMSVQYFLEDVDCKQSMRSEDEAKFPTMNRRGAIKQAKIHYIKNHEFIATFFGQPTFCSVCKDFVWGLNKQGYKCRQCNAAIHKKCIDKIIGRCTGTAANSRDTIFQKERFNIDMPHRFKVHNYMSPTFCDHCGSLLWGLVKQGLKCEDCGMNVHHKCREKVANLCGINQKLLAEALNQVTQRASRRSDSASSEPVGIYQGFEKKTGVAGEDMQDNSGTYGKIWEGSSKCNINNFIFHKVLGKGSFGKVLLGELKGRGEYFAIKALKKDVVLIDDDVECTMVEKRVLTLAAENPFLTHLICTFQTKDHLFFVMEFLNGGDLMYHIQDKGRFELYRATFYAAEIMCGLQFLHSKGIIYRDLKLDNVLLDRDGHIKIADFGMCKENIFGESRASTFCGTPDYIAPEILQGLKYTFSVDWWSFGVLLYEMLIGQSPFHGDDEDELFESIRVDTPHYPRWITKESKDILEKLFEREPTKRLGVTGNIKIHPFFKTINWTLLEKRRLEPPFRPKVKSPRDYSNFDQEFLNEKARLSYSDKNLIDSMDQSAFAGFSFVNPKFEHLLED
EXPERIMENTAL_PROTOCOL: Inhibition of PKCdelta (unknown origin) after 60 mins in presence of [gamma33P]ATP by scintillation proximity assay
RECORDED_ENDPOINT: IC50 (µM)
Express it in µM; write the number only.

CN(C)Cc1ccc2c(C3=C(c4cn(C)c5ccccc45)C(=O)NC3=O)c(Cl)ccc2c1
0.017
COCCNCc1ccc2ccc(Cl)c(C3=C(c4cn(C)c5ccccc45)C(=O)NC3=O)c2c1
0.039
CNCc1ccc2ccc(Cl)c(C3=C(c4cn(C)c5ccccc45)C(=O)NC3=O)c2c1
0.015
Cn1cc(C2=C(c3c(Cl)ccc4ccc(CN)cc34)C(=O)NC2=O)c2ccccc21
0.254
CC(C)NCc1ccc2ccc(Cl)c(C3=C(c4cn(C)c5ccccc45)C(=O)NC3=O)c2c1
0.079

Continue with the compound presented below.
**Q:** Entry CC(=O)N(C)Cc1ccc2ccc(Cl)c(C3=C(c4cn(C)c5ccccc45)C(=O)NC3=O)c2c1 needs its IC50 filled in; supply it.
**A:** 0.284
